tested on: IKZF1 (Homo sapiens (Human), UniProt Q13422+Q96SW2)
Sequence (Q13422 whole entry): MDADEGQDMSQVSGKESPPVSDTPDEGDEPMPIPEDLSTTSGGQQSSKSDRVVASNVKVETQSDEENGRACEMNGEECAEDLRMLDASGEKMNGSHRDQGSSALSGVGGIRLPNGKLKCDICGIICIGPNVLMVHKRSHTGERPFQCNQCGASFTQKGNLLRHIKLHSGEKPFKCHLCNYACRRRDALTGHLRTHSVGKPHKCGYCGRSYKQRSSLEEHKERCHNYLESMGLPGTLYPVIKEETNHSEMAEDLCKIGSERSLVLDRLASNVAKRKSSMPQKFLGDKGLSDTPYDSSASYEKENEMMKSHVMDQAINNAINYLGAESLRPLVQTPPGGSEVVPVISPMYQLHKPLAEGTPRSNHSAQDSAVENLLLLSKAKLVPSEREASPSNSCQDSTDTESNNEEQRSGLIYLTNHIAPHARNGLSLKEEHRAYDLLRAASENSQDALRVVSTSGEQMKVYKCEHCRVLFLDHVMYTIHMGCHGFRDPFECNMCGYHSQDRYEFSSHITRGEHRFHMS
Sequence (Q96SW2 whole entry): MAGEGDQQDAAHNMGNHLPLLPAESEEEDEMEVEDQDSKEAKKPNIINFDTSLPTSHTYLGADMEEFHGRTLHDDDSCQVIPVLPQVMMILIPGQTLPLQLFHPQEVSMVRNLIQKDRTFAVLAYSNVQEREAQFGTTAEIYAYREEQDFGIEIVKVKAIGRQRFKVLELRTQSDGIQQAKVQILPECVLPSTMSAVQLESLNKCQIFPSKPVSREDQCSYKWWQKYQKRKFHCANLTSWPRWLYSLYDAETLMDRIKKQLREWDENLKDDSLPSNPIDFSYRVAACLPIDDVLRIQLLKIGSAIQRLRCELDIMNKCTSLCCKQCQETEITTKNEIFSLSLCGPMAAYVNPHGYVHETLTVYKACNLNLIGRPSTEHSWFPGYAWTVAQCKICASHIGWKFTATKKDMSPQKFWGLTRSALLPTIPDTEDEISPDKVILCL
Sequence (Q16531 2-1140 partner): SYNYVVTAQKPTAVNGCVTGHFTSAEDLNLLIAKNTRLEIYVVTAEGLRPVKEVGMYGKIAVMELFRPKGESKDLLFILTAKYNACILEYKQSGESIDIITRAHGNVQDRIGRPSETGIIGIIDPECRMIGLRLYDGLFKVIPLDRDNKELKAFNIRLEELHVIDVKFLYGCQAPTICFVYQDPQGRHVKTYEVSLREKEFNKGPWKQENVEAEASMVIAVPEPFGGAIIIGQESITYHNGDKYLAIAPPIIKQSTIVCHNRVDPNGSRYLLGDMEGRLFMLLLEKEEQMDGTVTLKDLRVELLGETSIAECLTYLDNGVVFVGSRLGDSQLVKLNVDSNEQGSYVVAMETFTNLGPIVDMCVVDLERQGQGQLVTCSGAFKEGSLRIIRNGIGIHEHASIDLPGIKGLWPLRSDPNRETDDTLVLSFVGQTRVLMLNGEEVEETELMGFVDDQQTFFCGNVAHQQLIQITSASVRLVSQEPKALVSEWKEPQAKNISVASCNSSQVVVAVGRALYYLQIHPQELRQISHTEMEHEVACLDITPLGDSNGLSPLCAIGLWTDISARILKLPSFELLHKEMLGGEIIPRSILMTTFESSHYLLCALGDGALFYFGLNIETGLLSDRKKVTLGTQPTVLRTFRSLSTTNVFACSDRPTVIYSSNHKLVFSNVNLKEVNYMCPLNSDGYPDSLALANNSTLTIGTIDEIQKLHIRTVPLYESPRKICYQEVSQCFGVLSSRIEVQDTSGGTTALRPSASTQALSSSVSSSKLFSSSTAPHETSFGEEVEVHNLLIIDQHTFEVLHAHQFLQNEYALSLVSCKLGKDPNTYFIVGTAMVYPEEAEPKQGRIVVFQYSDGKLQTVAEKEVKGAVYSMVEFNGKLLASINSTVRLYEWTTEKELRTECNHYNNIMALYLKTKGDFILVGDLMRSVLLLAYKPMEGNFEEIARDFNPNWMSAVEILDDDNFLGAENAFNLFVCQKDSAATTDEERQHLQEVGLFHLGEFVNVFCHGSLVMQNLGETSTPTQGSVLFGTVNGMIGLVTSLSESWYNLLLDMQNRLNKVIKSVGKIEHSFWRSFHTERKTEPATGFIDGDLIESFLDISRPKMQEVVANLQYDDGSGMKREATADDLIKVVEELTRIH
assay protocol: In vitro IKZF1 HiBit Assay (HEK293T Flp-in-HiBiT-IKZF1 stable cell line)
Format: cell-based
experimental parameters: HEK-293T; HEK293T Flp-in-HiBiT-IKZF1 stable cell line, 6 hrs incubation; read-out: IKZF1 HiBit Dmax (%)
The compounds listed here are annotated with their Dmax.
readout name: Dmax

compound | reported
Nc1n[nH]c2c(CN3CC4COCC(C4)C3)cc(-c3ccc4c(c3)CN(C3CCC(=O)NC3=O)C4=O)nc12 (stereo not drawn) [Example 215] | 20 to 40%
Cn1ccc2c(CN3CCCC3)cc(-c3cc4c(cc3Cl)C(=O)N(C3CCC(=O)NC3=O)C4)nc21 (stereo not drawn) [Example 83] | < 20%
O=C1CCC(N2Cc3cc(-c4cc(CN5CCC(O)CC5)c5cc[nH]c5n4)ccc3C2=O)C(=O)N1 (stereo not drawn) [Example 125] | 20 to 40%
CC(C)n1nc(N)c2nc(-c3ccc4c(c3)CN(C3CCC(=O)NC3=O)C4=O)cc(CN3CCCC3)c21 (stereo not drawn) [Example 177] | 20 to 40%
COC1CCN(Cc2cc(-c3ccc4c(c3)CN(C3CCC(=O)NC3=O)C4=O)nc3c2ccn3C)C1 (stereo not drawn) [Example 93] | 20 to 40%
CCn1ccc2c(CN3CCCC3)cc(-c3ccc4c(c3)CN(C3CCC(=O)NC3=O)C4=O)nc21 (stereo not drawn) [Example 74] | < 20%
CN1C2CCC1CN(Cc1cc(-c3ccc4c(c3)CN(C3CCC(=O)NC3=O)C4=O)nc3c1ccn3C)C2 (stereo not drawn) [Example 311] | < 20%
O=C1CCC(N2Cc3cc(-c4cc(CN5CCC(CO)C5)c5ccn(C6CC6)c5n4)ccc3C2=O)C(=O)N1 (stereo not drawn) [Example 155] | 20 to 40%
CC(C)Nc1n[nH]c2c(CN3CC4COCC4C3)cc(-c3ccc4c(c3F)CN(C3CCC(=O)NC3=O)C4=O)nc12 (stereo not drawn) [Example 288] | < 20%
Cn1ccc2c(C3CCCCN3)cc(-c3ccc4c(c3)CN([C@H]3CCC(=O)NC3=O)C4=O)nc21 (stereo partly drawn) [Example 231] | 20 to 40%
CC(C)Nc1n[nH]c2c(CN3CCCC3)cc(-c3ccc4c(c3Cl)CN(C3CCC(=O)NC3=O)C4=O)nc12 (stereo not drawn) [Example 227] | < 20%
CS(=O)(=O)Nc1n[nH]c2c(CN3CCCC3)cc(-c3ccc4c(c3F)CN(C3CCC(=O)NC3=O)C4=O)nc12 (stereo not drawn) [Example 297] | < 20%
O=C1CCC(N2Cc3cc(-c4cc(CN5CCCC5)c5ccn(CCO)c5n4)ccc3C2=O)C(=O)N1 (stereo not drawn) [Example 131] | < 20%
CN(C)c1ccnc2c(CN3CCCC3)cc(-c3ccc4c(c3)CN(C3CCC(=O)NC3=O)C4=O)nc12 (stereo not drawn) [Example 237] | 20 to 40%
O=C1CCC(N2Cc3c(ccc(-c4cc(CN5CCC(F)CC5)c5ccn(C6CS(=O)(=O)C6)c5n4)c3F)C2=O)C(=O)N1 (stereo not drawn) [Example 268] | 40 to 60%
